Where do the numbers come from? From patent US6916798B2.

Molecular target: GSK-3β (AA 1-420) (Homo sapiens, UniProt P49841)
Construct: GSK-3β (AA 1-420)
Sequence (P49841 whole entry, the tested form may be a part): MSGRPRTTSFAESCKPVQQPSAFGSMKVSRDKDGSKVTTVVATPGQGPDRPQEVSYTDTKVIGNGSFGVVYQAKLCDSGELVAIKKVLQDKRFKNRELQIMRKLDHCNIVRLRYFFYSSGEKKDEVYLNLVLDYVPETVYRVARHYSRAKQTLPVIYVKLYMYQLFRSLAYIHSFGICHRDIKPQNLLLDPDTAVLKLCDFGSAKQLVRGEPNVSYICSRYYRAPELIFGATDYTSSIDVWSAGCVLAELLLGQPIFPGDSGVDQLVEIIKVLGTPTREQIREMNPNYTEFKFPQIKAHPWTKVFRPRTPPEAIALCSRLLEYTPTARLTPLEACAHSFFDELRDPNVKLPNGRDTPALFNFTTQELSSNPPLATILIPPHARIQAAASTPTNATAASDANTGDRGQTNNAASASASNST
Test: Ki determination for the inhibition of GSK-3, standard coupled enzyme system
Type: biochemical
Conditions: 20 μM ATP, 300 μM peptide, 20 nM GSK-3β, 30° C.; read-out: Ki values for GSK-3
Each item that follows carries a reported Ki.

Some solved entries appear below for comparison.
smiles-entry | assay-result
COc1ccc(C2=NNC(=O)C2=CNc2cccc(C(=O)c3ccccc3)c2)cc1 | 100 to 1000 nM
O=C1NN=C(c2ccncc2)/C1=N/Nc1ccccc1Cl | 100 to 1000 nM
COc1ccc(C2=NNC(=O)C2=CNc2cccc(S(N)(=O)=O)c2)cc1OC | 100 to 1000 nM
COc1ccc(C2=NNC(=O)/C2=N\Nc2ccc(N3CCOCC3)cc2)cc1OC | < 100 nM
COc1ccc(NN=C2C(=O)NN=C2c2ccccc2F)cc1 | 100 to 1000 nM
COc1ccc(C2=NNC(=O)C2=NNc2cccc(-c3ccccc3)c2)cc1 | < 100 nM
COc1cc(C2=NNC(=O)C2=NNc2ccc(N3CCOCC3)cc2OC)ccc1O | 100 to 1000 nM
COc1ccc(N/N=C2\C(=O)NN=C2c2ccc(OC)c(OC)c2)cc1 | < 100 nM

# input for lookup
Asked: Name the recorded Ki for `COc1ccc(C2=NNC(=O)/C2=N\Nc2ccc(C#N)cc2)cc1OC` .
Given back: < 100 nM

====

Biological target: GSK-3β (AA 1-420) (Homo sapiens)
Construct: GSK-3β (AA 1-420)
Assay: Ki determination for the inhibition of GSK-3, standard coupled enzyme system
Format: biochemical
Settings: 20 μM ATP, 300 μM peptide, 20 nM GSK-3β, 30° C.; read-out: Ki values for GSK-3
Each item that follows carries a reported Ki.

smiles-entry | observed-property | assay-result
COc1cccc(C2=NNC(=O)C2=NNc2cccc(Oc3ccccc3)c2)c1 | Ki | < 100 nM
COc1ccc(C2=NNC(=O)C2=NNc2ccc([N+](=O)[O-])cc2)cc1 | Ki | < 100 nM
COc1ccc(C2=NNC(=O)C2=NNc2ccc(OCCCN(C)C)c(-c3ccccc3)c2)cc1OC | Ki | < 100 nM
COc1ccc(C2=NNC(=O)C2=CNc2ccc3c(c2)NCC3)cc1 | Ki | 100 to 1000 nM

Asked: Name the recorded Ki for `COc1ccc(NN=C2C(=O)NN=C2c2ccc(C#N)cc2)cc1` .
Given back: 100 to 1000 nM

Asked: Name the recorded Ki for `COc1ccc(C2=NNC(=O)C2=NNc2ccc(-c3ccccc3)cc2)cc1OC` .
Given back: < 100 nM

Asked: Name the recorded Ki for `COc1ccc(C2=NNC(=O)C2=NNc2ccc(OCCCN(C)CCO)c(-c3ccccc3)c2)cc1OC` .
Given back: < 100 nM

====

Target: GSK-3β (AA 1-420) (Homo sapiens, UniProt P49841)
Construct: GSK-3β (AA 1-420)
Assay: Ki determination for the inhibition of GSK-3, standard coupled enzyme system
Type: biochemical
observed-property: Ki

Asked: Name the recorded Ki for `COc1ccc(N/N=C2\C(=O)NN=C2c2cccnc2)cc1` .
Given back: < 100 nM

====

Reported Ki values, Aurora-2 (Homo sapiens, UniProt O14965).

Some solved entries appear below for comparison.
smiles-entry | assay-result
COc1ccc(N/N=C2\C(=O)NN=C2c2ccc(OC)c(OC)c2)cc1 | < 0.1 µM
COc1cccc(C2=NNC(=O)/C2=N\Nc2ccc(N3CCOCC3)cc2)c1 | 0.1 to 1 µM

Asked: Any idea what Ki came out for `COc1ccc(C2=NNC(=O)/C2=N\Nc2ccc(N3CCOCC3)cc2)cc1` on Aurora-2 (Homo sapiens, UniProt O14965)?
Given back: 0.1 to 1 µM

Asked: Any idea what Ki came out for `COc1ccc(C2=NNC(=O)/C2=N\Nc2ccc(C#N)cc2)cc1OC` on Aurora-2 (Homo sapiens, UniProt O14965)?
Given back: 0.1 to 1 µM

Asked: Any idea what Ki came out for `CCN(CCO)c1ccc(NN=C2C(=O)NN=C2c2ccc(OCc3ccccc3)c(OC)c2)cc1` on Aurora-2 (Homo sapiens, UniProt O14965)?
Given back: < 0.1 µM

Asked: Any idea what Ki came out for `COc1ccc(N/N=C2\C(=O)NN=C2c2cc(OC)c(OC)c(OC)c2)cc1` on Aurora-2 (Homo sapiens, UniProt O14965)?
Given back: < 0.1 µM

Asked: Any idea what Ki came out for `COc1ccc(C2=NNC(=O)/C2=N\Nc2ccc(Cl)cc2)cc1` on Aurora-2 (Homo sapiens, UniProt O14965)?
Given back: 0.1 to 1 µM
